// provenance: patent US20100105727A1

Listing of recorded IC50 by entry.
- target.or.test.system: UniProt Q13639
- Sequence (Q13639 whole entry): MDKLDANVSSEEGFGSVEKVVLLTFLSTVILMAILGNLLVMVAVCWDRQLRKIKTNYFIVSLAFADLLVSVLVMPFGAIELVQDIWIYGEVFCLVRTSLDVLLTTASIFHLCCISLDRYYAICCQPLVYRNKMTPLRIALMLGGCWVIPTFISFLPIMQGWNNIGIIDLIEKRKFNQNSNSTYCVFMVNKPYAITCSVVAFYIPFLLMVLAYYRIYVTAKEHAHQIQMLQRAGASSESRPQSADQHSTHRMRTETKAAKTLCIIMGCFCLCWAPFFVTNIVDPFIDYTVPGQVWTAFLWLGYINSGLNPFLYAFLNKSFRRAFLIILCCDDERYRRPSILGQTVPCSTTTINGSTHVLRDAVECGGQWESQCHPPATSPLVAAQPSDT
- measurement.protocol: Binding affinity of compounds for 5-HT4 receptor (radioligand displacement, membrane lysates of COS-7 cells)
- condition.set: inhibition of specific binding of 0.595 nM [H3]-AGR113808; COS-7 cell membrane lysates expressing human 5-HT4 receptor
- Protocol: For this purpose, COS-7 cells expressing the human 5-HT4 receptor were constructed and lysed to obtain cell membrane lysates which were then used in binding assay experiments. […] After incubation was completed, the reaction products were collected in a GF/B glass fiber filter using a Packard cell harvester, and the bound radioactivity was then determined using a liquid cell scintillation counter (Packard TopCount NXT™, Perkin Elmer). […]
Respond numerically; units are µM and should not be typed.

# count of solved cases: 2
{"molecule": "CCCC(=O)N1CCC(CN2CC[C@H](NC(=O)c3cc(Cl)c(N)cc3OC)[C@H](OC)C2)CC1 (relative stereo)", "IC50 (µM)": 0.106}
{"molecule": "COc1cc(N)c(Cl)cc1C(=O)N[C@H]1CCN(CCC(=O)Nc2ccc3ncccc3c2)C[C@H]1OC (relative stereo)", "IC50 (µM)": 0.053}

Please look at the following molecule next.
Asked: Look up IC50: C=CCOC(=O)N1CCC(CN2CC[C@H](NC(=O)c3cc(Cl)c(N)cc3OC)[C@H](OC)C2)CC1 (relative stereo)
Given back: 0.093

* * *

Listing of recorded pIC50 by entry.
- target.or.test.system: UniProt Q13639
- measurement.protocol: Binding affinity of compounds for 5-HT4 receptor (radioligand displacement, membrane lysates of COS-7 cells)
- condition.set: inhibition of specific binding of 0.595 nM [H3]-AGR113808; COS-7 cell membrane lysates expressing human 5-HT4 receptor
Bear in mind: pIC50 is minus log10 of a mol/L concentration; give just that figure.

# count of solved cases: 9
{"compound": "COc1cc(N)c(Cl)cc1C(=O)N[C@H]1CCN(CCCCCC(=O)Nc2cc(C)cc(C)n2)C[C@H]1OC (relative stereo)", "pIC50": 7.07}
{"compound": "COc1cc(N)c(Cl)cc1C(=O)N[C@H]1CCN(CC2CCN(C(=O)C(C)(C)C)CC2)C[C@H]1OC (relative stereo)", "pIC50": 7.47}
{"compound": "COc1cc(N)c(Cl)cc1C(=O)N[C@H]1CCN(CC2CCN(C(=S)C(C)(C)C)CC2)C[C@H]1OC (relative stereo)", "pIC50": 6.66}
{"compound": "COc1cc(N)c(Cl)cc1C(=O)N[C@H]1CCN(CC2CCN(S(C)(=O)=O)CC2)C[C@H]1OC (relative stereo)", "pIC50": 6.78}
{"compound": "CCCCC(=O)N1CCC(CN2CC[C@H](NC(=O)c3cc(Cl)c(N)cc3OC)[C@H](OC)C2)CC1 (relative stereo)", "pIC50": 7.14}
{"compound": "CCCCCC(=S)N1CCC(CN2CC[C@H](NC(=O)c3cc(Cl)c(N)cc3OC)[C@H](OC)C2)CC1 (relative stereo)", "pIC50": 7.28}
{"compound": "COc1cc(N)c(Cl)cc1C(=O)N[C@H]1CCN(CC2CCN(S(=O)(=O)C(C)C)CC2)C[C@H]1OC (relative stereo)", "pIC50": 7.33}
{"compound": "COc1cc(N)c(Cl)cc1C(=O)N[C@H]1CCN(CC2CCN(C(=O)NC(C)C)CC2)C[C@H]1OC (relative stereo)", "pIC50": 7.60}
{"compound": "CCCCCC(=O)N1CCC(CN2CC[C@H](NC(=O)c3cc(Cl)c(N)cc3OC)[C@H](OC)C2)CC1 (relative stereo)", "pIC50": 7.21}

Please look at the following compound next.
Asked: Look up pIC50: COc1cc(N)c(Cl)cc1C(=O)N[C@H]1CCN(CC2CCN(C(=O)OCC(C)C)CC2)C[C@H]1OC (relative stereo)
Given back: 6.97
